- Test target: T1, Dimeric fibrinogen-like domain of human Ang-2 conjugated to human IgG1 (human)
- T1 construct: also called Dimeric Human Ang-2FD; Human Ang-2FD-hFc
- T1 sequence (chain, as listed by the source limits assumed): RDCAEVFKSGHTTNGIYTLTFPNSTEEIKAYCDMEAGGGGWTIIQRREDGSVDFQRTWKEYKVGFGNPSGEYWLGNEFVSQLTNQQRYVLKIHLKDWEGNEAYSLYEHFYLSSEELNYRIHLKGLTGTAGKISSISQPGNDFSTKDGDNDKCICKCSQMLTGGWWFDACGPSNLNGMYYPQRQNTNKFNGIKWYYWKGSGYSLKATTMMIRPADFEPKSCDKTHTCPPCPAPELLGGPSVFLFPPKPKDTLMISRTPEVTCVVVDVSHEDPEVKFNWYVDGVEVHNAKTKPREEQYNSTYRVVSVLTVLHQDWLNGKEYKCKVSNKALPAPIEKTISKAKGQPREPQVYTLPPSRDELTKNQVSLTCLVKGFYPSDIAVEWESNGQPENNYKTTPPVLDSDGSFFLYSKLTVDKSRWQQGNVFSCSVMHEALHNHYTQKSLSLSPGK
- Assay method text: SPR, hIgG1 antibody captured, room temp
Test readout: pKd
Answers are plain numbers, as −log10 of the molar value.

Lookup: Please indicate pKd recorded for H1H693P (antibody, V domains shown) VH: EVQLVESGGGLVQPGESLRLSCAASGFTFSSYAMSWVRQGPGKGLEWVSSISGSGGTTYYADSVEGRFTISRDNSKNTLYLHMNSLRAEDTAVYYCAKDFLDYSTYLAFDLWGQGTMVTVSS VL: DIQMTQSPSSVSASVGDRVTITCRASQGISSWLAWYQQKPGKAPKLLIYAASSLQSGVPSRFSGSGSGTDFTLTISSLQPEDFATYYCQQANSFPRTFGQGTKVEIK
Found: 9.30
